# measured.on: FXR (Homo sapiens, UniProt Q96RI1)
# assay.explanation: FXR TR-FRET binding assay (DY246 fluorescent probe)
# measurement.setup: mean ± SE
measured.attribute: IC50 (µM)

> print(dat)
                                   compound                         measured.on  measured.attribute  reported
1  CCCCn1cc(C(=O)Nc2ccc(C)c(S(=O)(=O)N3CCOCC3)c2)c(-c2ccc(C)cc2)n1 [Compound 4g]  FXR (Homo sapiens, UniProt Q96RI1)                IC50    0.0525

P: COCCc1nn(C(C)C)cc1C(=O)Nc1ccc(C)c(S(=O)(=O)N2CCOCC2)c1 [Compound 4r]
Q: COc1cccc(Cn2cc(CNc3ccc(C)c(S(=O)(=O)N4CCOCC4)c3)c(C(C)C)n2)c1 [Compound 9-2]
R: COc1cccc(Cn2cc(C(=O)Nc3ccc(C)c(S(=O)(=O)N4CCOCC4)c3)c(C(C)C)n2)c1 [Compound 4m]
Ask: Order the 3 compounds from highest to lowest IC50. Give the labels in the order requested.
Reply: P, Q, R

* * *

# measured.on: FXR (Homo sapiens)
# Sequence (Q96RI1 262-486 limits assumed): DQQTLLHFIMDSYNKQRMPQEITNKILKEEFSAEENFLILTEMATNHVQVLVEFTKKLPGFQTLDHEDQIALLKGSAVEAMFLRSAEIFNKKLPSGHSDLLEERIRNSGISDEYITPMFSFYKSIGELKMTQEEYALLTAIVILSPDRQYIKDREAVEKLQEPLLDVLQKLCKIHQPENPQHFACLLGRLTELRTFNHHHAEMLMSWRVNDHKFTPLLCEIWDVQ
# assay.explanation: GeneBLAzer FXR cell-based antagonistic assay (in presence of 400 nM GW4064)
# Set-up: the Gal4 DBD was fused to the LBD of FXR in this assay; host or cells: GeneBLAzer FXR-UAS-bla HEK 293T cells
# measurement.setup: with 400 nM GW4064; read-out: GB FXR Cell Anta. IC50
pIC50: −log10 of the molar value.
measured.attribute: pIC50

> print(dat)
                                   molecule         measured.on  reported
1  Cc1ccc(-c2nn(C(C)C)cc2C(=O)Nc2ccc(C)c(S(=O)(=O)N3CCOCC3)c2)cc1 [Compound 4f]  FXR (Homo sapiens)      5.77

1: COc1cccc(Cn2cc(C(=O)Nc3ccc(C)c(S(=O)(=O)N4CCOCC4)c3)c(-c3ccc(C)cc3)n2)c1 [Compound 4j]
2: COCCc1nn(Cc2cccc(OC)c2)cc1C(=O)Nc1ccc(C)c(S(=O)(=O)N2CCOCC2)c1 [Compound 4s]
Ask: Of 1 and 2 , whose reported pIC50 is numerically smaller? Reply briefly: the label of your chosen item.
Reply: 2
(2: 4.95, 1: 6.33)

1: Cc1ccc(-c2nn(Cc3cccc(C(F)(F)F)c3)cc2C(=O)Nc2ccc(C)c(S(=O)(=O)N3CCOCC3)c2)cc1 [Compound 4k]
2: Cc1ccc(-c2nn(-c3ccc(F)cc3)cc2C(=O)Nc2ccc(C)c(S(=O)(=O)N3CCOCC3)c2)cc1 [Compound 4a]
3: Cc1ccc(-c2nn(CC3CC3)cc2C(=O)Nc2ccc(C)c(S(=O)(=O)N3CCOCC3)c2)cc1 [Compound 4i]
4: COCCc1nn(C(C)C)cc1C(=O)Nc1ccc(C)c(S(=O)(=O)N2CCOCC2)c1 [Compound 4r]
Ask: Order the 4 molecules from highest to lowest pIC50. Give the labels in the order requested.
Reply: 1, 3, 2, 4
(1: 6.29, 3: 6.07, 2: 5.60, 4: 4.53)

a: Cc1ccc(-c2nn(Cc3ccc4ccccc4c3)cc2C(=O)Nc2ccc(C)c(S(=O)(=O)N3CCOCC3)c2)cc1 [Compound 4h]
b: COc1cccc(-c2nn(C(C)C)cc2C(=O)Nc2ccc(C)c(S(=O)(=O)N3CCOCC3)c2)c1 [Compound 4n]
c: COc1cccc(Cn2cc(CNc3ccc(C)c(S(=O)(=O)N4CCOCC4)c3)c(C(C)C)n2)c1 [Compound 9-2]
Ask: Write the entries in order, lowest recorded pIC50 first. Give the labels in the order requested.
Reply: c, b, a

I: COc1cccc(Cn2cc(C(=O)Nc3ccc(C)c(S(=O)(=O)N4CCOCC4)c3)c(-c3ccc(C(F)(F)F)cc3)n2)c1 [Compound 4q]
II: COc1cccc(Cn2cc(C(=O)Nc3ccc(C)c(S(=O)(=O)N4CCOCC4)c3)c(C(C)C)n2)c1 [Compound 4m]
III: CCCCn1cc(C(=O)Nc2ccc(C)c(S(=O)(=O)N3CCOCC3)c2)c(-c2ccc(C)cc2)n1 [Compound 4g]
IV: Cc1ccc(-c2nn(-c3cccc(C(F)(F)F)c3)cc2C(=O)Nc2ccc(C)c(S(=O)(=O)N3CCOCC3)c2)cc1 [Compound 4d]
V: Cc1ccc(NC(=O)c2cn(C(C)C)nc2-c2ccc(C(F)(F)F)cc2)cc1S(=O)(=O)N1CCOCC1 [Compound 4p]
Ask: Write the entries in order, lowest recorded pIC50 first. Give the labels in the order requested.
Reply: IV, III, II, V, I

* * *

# measured.on: FXR (Homo sapiens, UniProt Q96RI1)
# Sequence (Q96RI1 262-486 limits assumed): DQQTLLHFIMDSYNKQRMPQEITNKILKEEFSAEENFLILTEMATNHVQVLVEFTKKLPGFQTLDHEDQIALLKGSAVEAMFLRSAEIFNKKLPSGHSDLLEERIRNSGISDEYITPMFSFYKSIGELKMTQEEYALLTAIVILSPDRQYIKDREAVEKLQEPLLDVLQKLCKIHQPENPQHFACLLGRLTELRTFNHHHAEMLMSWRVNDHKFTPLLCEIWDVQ
# assay.explanation: GeneBLAzer FXR cell-based antagonistic assay (in presence of 400 nM GW4064)
# Set-up: the Gal4 DBD was fused to the LBD of FXR in this assay; host or cells: GeneBLAzer FXR-UAS-bla HEK 293T cells
# measurement.setup: read-out: GB FXR Cell Anta. % Inh.
measured.attribute: inhibition at 40 µM (%)

> print(dat)
                                   molecule                         measured.on   measured.attribute  reported
1  COc1cccc(Cn2cc(C(=O)Nc3ccc(C)c(S(=O)(=O)N4CCOCC4)c3)c(C(C)C)n2)c1  FXR (Homo sapiens, UniProt Q96RI1)  inhibition at 40 µM      99.2
2  Cc1ccc(-c2nn(-c3nc4ccccc4s3)cc2C(=O)Nc2ccc(C)c(S(=O)(=O)N3CCOCC3)c2)cc1  FXR (Homo sapiens, UniProt Q96RI1)  inhibition at 40 µM      79.1
3  Cc1ccc(-c2nn(-c3ccccc3)cc2C(=O)Nc2ccc(C)c(S(=O)(=O)N3CCOCC3)c2)cc1 [Compound Z26476908, reference compound]  FXR (Homo sapiens, UniProt Q96RI1)  inhibition at 40 µM      77.2
4  COc1cccc(Cn2cc(C(=O)Nc3ccc(C)c(S(=O)(=O)N4CCOCC4)c3)c(-c3cccc(OC)c3)n2)c1  FXR (Homo sapiens, UniProt Q96RI1)  inhibition at 40 µM      89.4

P: Cc1ccc(-c2nn(-c3ccc(Cl)cc3Cl)cc2C(=O)Nc2ccc(C)c(S(=O)(=O)N3CCOCC3)c2)cc1
Q: COc1cccc(Cn2cc(CNc3ccc(C)c(S(=O)(=O)N4CCOCC4)c3)c(-c3cccc(OC)c3)n2)c1
R: Cc1ccc(-c2nn(-c3cccc(Cl)c3)cc2C(=O)Nc2ccc(C)c(S(=O)(=O)N3CCOCC3)c2)cc1
Ask: Write the entries in order, lowest recorded inhibition at 40 µM first. Give the labels in the order requested.
Reply: Q, R, P

* * *

# measured.on: FXR (Homo sapiens, UniProt Q96RI1)
# assay.explanation: FXR TR-FRET binding assay (DY246 fluorescent probe)
# measurement.setup: mean ± SE
pIC50: −log10 of the molar value.
measured.attribute: pIC50

Sample answers from the record:
> print(dat)
                                   molecule                         measured.on  reported
1  Cc1ccc(-c2nn(CCCCO)cc2C(=O)Nc2ccc(C)c(S(=O)(=O)N3CCOCC3)c2)cc1 [Compound 4l]  FXR (Homo sapiens, UniProt Q96RI1)      6.89
2  Cc1ccc(-c2nn(-c3ccccc3)cc2C(=O)Nc2ccc(C)c(S(=O)(=O)N3CCOCC3)c2)cc1 [Compound Z26476908, reference compound]  FXR (Homo sapiens, UniProt Q96RI1)      7.33
3  Cc1ccc(-c2nn(C(C)C)cc2C(=O)N(C)c2ccc(C)c(S(=O)(=O)N3CCOCC3)c2)cc1 [Compound 8-1]  FXR (Homo sapiens, UniProt Q96RI1)      6.31

I: COCCc1nn(Cc2cccc(OC)c2)cc1C(=O)Nc1ccc(C)c(S(=O)(=O)N2CCOCC2)c1 [Compound 4s]
II: COc1cccc(Cn2cc(C(=O)N(C)c3ccc(C)c(S(=O)(=O)N4CCOCC4)c3)c(C(C)C)n2)c1 [Compound 8-2]
Ask: Of I and II , whose reported pIC50 is numerically smaller? Reply briefly: the label of your chosen item.
Reply: II
